Quick record of IC50 values for UniProtKB P40763.
Field format: number, assumed nM, no unit text.

> print(dat)
                               smiles.input  recorded.measurement
1  CCCC[C@H](CCC(N)=O)NC(=O)[C@@H]1CCCN1C(=O)[C@H](CC(C)C)NC(=O)/C=C/c1ccc(OP(=O)(O)O)cc1                  1350
2  CC(C)C[C@H](NC(=O)/C=C/c1ccc(OP(=O)(O)O)cc1)C(=O)N1CCC[C@H]1C(=O)N[C@@H](CCC(N)=O)CN1CCCCC1                  1210

// returns IC50 for `CC(C)C[C@H](NC(=O)/C=C/c1ccc(OP(=O)(O)O)cc1)C(=O)N1CCC[C@H]1C(=O)N[C@@H](CCC(N)=O)CN(Cc1ccccc1)Cc1ccccc1` with UniProtKB P40763; value = 1080

---

Quick record of IC50 values for Signal transducer and activator of transcription 3 (Homo sapiens).
The reply should consist of the numeric value with the unit placed after it.

Answered examples (4):
COMPOUND	RECORDED_MEASUREMENT
CC(C)C[C@H](NC(=O)/C=C/c1ccc(OP(=O)(O)O)cc1)C(=O)N1C[C@H]2C[C@H]2[C@H]1C(=O)N[C@@H](CCC(N)=O)[C@@H](C)OCc1ccccc1 (mixture of isomers)	69 nM
CC(C)C[C@H](NC(=O)/C=C/c1ccc(OP(=O)(O)O)cc1)C(=O)N1CCC[C@H]1C(=O)N[C@@H](CCC(N)=O)C(C)C	1880 nM
CC(C)C[C@H](NC(=O)/C=C/c1ccc(OP(=O)(O)O)cc1)C(=O)N1C[C@H]2C[C@H]2[C@H]1C(=O)N[C@@H](CCC(N)=O)COCc1ccccc1	94 nM
CC(C)C[C@H](NC(=O)/C=C/c1ccc(OP(=O)(O)O)cc1)C(=O)N1C[C@H]2C[C@H]2[C@H]1C(=O)NCCOCc1ccccc1	69 nM

Form field IC50, entry `CC(C)C[C@H](NC(=O)/C=C/c1ccc(OP(=O)(O)O)cc1)C(=O)N1CCC[C@H]1C(=O)N[C@H](C)CNC(N)=O` : 1350 nM

Form field IC50, entry `CC(C)C[C@H](NC(=O)/C=C/c1ccc(OP(=O)(O)O)cc1)C(=O)N1C[C@H]2C[C@H]2[C@H]1C(=O)N[C@@H](CCC(N)=O)C(C)C` : 511 nM

---

Biological target: Signal transducer and activator of transcription 3 (Homo sapiens, UniProt P40763)
Sequence (P40763 whole entry): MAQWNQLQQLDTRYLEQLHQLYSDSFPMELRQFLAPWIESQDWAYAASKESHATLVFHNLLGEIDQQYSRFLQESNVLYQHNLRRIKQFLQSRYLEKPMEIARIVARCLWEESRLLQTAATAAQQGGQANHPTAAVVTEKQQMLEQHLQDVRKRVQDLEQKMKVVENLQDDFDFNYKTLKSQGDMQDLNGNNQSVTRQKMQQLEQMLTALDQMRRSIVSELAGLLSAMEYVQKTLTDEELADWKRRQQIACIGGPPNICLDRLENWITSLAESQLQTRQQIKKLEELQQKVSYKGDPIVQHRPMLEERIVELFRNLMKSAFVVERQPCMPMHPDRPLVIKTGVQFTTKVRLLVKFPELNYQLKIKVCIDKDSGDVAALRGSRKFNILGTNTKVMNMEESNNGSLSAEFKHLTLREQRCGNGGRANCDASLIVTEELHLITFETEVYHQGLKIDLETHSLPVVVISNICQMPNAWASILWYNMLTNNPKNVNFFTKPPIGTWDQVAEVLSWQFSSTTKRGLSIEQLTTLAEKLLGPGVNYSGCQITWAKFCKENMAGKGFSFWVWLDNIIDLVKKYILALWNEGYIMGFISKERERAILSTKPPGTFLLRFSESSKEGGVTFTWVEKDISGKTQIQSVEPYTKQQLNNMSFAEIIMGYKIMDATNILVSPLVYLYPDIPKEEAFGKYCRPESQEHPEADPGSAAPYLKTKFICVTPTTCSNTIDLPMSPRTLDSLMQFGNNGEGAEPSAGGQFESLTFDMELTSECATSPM
Each entry below carries its reported IC50.

> print(dat)
                               smiles.input  recorded.measurement
1  CC(=O)NC[C@H](CCC(N)=O)NC(=O)[C@@H]1CCCN1C(=O)[C@H](CC(C)C)NC(=O)/C=C/c1ccc(OP(=O)(O)O)cc1                589 nM
2  CC(C)C[C@H](NC(=O)/C=C/c1ccc(OP(=O)(O)O)cc1)C(=O)N1CCC[C@H]1C(=O)NCCNC(N)=O                131 nM

// returns IC50 for `CC(C)C[C@H](NC(=O)/C=C/c1ccc(OP(=O)(O)O)cc1)C(=O)N1C[C@H]2C[C@H]2[C@H]1C(=O)N[C@@H](CCC(N)=O)C(=O)NCc1ccccc1` with Signal transducer and activator of transcription 3 (Homo sapiens, UniProt P40763); value = 68 nM

// returns IC50 for `CC(C)C[C@H](CCC(N)=O)NC(=O)[C@@H]1[C@@H]2C[C@@H]2CN1C(=O)[C@H](CC(C)C)NC(=O)/C=C/c1ccc(OP(=O)(O)O)cc1` with Signal transducer and activator of transcription 3 (Homo sapiens, UniProt P40763); value = 1630 nM
